Target: T1, human CDH6 on tumor cells (OVCAR3 cells, PA-1 cells) (human, UniProt P55285 54-790)
T1 sequence: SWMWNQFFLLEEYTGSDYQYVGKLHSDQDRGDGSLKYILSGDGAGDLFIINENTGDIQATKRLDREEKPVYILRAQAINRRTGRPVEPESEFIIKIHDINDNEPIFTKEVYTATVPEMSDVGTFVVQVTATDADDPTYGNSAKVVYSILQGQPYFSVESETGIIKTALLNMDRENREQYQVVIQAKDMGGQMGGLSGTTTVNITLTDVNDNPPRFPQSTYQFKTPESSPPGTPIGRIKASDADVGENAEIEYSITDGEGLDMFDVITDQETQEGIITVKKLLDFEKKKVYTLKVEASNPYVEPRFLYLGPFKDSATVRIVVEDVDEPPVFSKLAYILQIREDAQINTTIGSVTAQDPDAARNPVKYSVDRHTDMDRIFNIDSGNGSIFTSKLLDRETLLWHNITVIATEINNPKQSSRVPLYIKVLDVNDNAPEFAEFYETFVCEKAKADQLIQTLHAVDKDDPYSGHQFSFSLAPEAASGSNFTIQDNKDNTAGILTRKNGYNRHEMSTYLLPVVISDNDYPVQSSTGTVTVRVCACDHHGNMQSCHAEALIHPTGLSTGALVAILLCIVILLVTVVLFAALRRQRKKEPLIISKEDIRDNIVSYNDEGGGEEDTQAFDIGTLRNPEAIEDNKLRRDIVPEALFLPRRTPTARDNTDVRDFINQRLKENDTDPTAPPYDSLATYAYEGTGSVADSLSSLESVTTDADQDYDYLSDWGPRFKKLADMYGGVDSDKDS
Test: FACS, OVCAR3 cells
Measurement Type: Max MFI (MFI)

Binder	Measurement Type	Numeric Readout
NOV0712 (antibody, human IgG1, kappa, V domains shown, Positive control, variable regions from WO2018212136A1; also called positive control anti-human CDH6 antibody) VH: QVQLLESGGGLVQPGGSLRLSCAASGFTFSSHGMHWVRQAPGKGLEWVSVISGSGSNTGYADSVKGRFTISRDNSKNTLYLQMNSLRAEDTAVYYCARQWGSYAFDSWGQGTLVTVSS VL: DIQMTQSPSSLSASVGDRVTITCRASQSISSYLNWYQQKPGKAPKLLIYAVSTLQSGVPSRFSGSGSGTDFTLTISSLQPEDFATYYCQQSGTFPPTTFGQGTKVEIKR	Max MFI	11500
CHI-CDH6-12 (antibody, human IgG1, kappa, V domains shown, also called CH1-CDH6-12; chimeric antibody of murine CDH6-12) VH: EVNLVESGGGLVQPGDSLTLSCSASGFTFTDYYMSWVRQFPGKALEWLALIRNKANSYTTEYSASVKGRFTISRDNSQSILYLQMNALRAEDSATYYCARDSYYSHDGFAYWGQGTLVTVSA VL: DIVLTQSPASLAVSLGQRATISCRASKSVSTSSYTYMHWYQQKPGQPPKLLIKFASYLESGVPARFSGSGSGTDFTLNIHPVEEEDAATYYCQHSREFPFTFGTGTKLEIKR	Max MFI	12500
DS-H01L02 (antibody, human IgG1, kappa, V domains shown, Positive control, variable regions from WO2018212136A1; also called positive control anti-human CDH6 antibody) VH: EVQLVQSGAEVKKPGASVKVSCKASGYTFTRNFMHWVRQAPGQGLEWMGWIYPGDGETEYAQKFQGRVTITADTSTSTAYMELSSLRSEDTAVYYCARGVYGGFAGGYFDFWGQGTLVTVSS VL: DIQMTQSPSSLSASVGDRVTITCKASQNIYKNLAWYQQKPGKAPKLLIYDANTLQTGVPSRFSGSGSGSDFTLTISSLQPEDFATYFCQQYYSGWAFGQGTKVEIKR	Max MFI	9730
CHI-CDH6-9 (antibody, human IgG1, kappa, V domains shown, also called chimeric antibody of murine CDH6-9) VH: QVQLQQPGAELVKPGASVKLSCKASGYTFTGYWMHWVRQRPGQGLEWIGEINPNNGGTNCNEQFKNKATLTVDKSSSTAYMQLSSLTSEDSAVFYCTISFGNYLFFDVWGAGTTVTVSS VL: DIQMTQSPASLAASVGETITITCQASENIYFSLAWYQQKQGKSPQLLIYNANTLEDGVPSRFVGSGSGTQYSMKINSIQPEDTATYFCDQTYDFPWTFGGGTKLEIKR	Max MFI	18200
CHI-CDH6-5 (antibody, human IgG1, kappa, V domains shown, also called CH1-CDH6-5; chimeric antibody of murine CDH6-5) VH: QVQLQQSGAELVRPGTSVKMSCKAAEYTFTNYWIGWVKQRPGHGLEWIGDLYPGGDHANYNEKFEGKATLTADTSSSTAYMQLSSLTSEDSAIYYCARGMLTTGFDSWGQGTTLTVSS VL: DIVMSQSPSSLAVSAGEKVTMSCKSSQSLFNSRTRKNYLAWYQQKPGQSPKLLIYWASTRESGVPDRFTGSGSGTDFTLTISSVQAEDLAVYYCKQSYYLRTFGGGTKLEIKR	Max MFI	12700
CHI-CDH6-2 (antibody, human IgG1, kappa, V domains shown, also called chimeric antibody of murine CDH6-2) VH: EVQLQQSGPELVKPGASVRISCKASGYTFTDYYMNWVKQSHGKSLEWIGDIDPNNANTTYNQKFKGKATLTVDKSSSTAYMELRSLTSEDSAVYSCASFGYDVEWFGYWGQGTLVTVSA VL: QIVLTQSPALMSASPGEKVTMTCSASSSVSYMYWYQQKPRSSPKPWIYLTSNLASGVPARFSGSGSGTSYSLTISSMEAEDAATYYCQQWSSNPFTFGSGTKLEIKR	Max MFI	15600
